biological target: hGLP-1R (Homo sapiens, UniProt P43220); experiment: cell-based or functional assay
Sequence (P43220 24-463): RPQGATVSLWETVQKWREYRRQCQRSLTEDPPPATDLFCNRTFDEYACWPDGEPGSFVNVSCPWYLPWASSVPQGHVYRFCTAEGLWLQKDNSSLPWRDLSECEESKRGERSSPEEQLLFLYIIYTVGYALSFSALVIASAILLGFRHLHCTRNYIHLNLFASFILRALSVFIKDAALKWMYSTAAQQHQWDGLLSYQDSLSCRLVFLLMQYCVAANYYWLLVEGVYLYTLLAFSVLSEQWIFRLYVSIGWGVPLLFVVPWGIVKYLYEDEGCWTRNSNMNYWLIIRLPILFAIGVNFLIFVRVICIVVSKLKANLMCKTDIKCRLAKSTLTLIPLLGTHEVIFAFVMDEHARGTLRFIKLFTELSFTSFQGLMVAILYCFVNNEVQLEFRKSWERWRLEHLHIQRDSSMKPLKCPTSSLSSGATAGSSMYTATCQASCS
So I've got a bunch of binders here, and I need their cAMP Rel EC50 (1% HSA) values.
Give your result in nM as a bare value.

Enquiry: Bench note: what cAMP Rel EC50 (1% HSA) did YXQGTXTSDXXIXLDXKAQXEFIEXLIEGGPSSGEPPPEGE (non-natural residues; AEEA-γGlu-C18 diacid on Lys; C-terminal amide; synthetic construct; SITE 2: note = 2-Aminoisobutyric Acid; SITE 6: note = alpha-methyl-2-fluoro-L-phenylalanine; SITE 10: note = 3-(4-Pyridyl)-L-alanine; SITE 11: note = alpha-methyl-L-serine; SITE 13: note = alpha-methyl-leucine; SITE 16: note = L-ornithine; SITE 17: note = Lysine is chemically mo) [Example 1149] show?
Return: 52.2

Enquiry: Bench note: what cAMP Rel EC50 (1% HSA) did YXQGTXTSDXXIXLDXKAAXEFIEXLIEGGPSSGAPPPSGEEE (synthetic construct; SITE 2: note = 2-Aminoisobutyric Acid; SITE 6: note = alpha-methyl-2-fluoro-L-phenylalanine; SITE 10: note = 3-(4-Pyridyl)-L-alanine; SITE 11: note = alpha-methyl-L-serine; SITE 13: note = alpha-methyl-leucine; SITE 16: note = L-ornithine; SITE 17: note = Lysine is chemically mo) [Example 705] show?
Return: 33.7

Enquiry: Bench note: what cAMP Rel EC50 (1% HSA) did YXQGTFTSDXSQXLDXKAQXAFIEXLLAGGPSSGAPPPSGSEEE (Lys acylated γGlu-C18 diacid; non-natural residues; C-amide; synthetic construct; SITE 2: note = 2-Aminoisobutyric Acid; SITE 10: note = 3-(4-Pyridyl)-L-alanine; SITE 13: note = alpha-methyl-leucine; SITE 16: note = L-ornithine; SITE 17: note = Lysine is chemically modified through conjugation of the epsilon-amino group of the Lysine side chain with D-Glutami) [Example 1082] show?
Return: 677
